# target-or-system: T1, cyIL1RAP-His (Lake Pharma) (cynomolgus monkey, UniProt A0A2K5X5J5 21-367)
# T1 construct: Bought protein (Lake Pharma, lot 16205819371); also called cynomolgus IL1RAP; monkey IL1RAP; not shown: His tag
# T1 sequence: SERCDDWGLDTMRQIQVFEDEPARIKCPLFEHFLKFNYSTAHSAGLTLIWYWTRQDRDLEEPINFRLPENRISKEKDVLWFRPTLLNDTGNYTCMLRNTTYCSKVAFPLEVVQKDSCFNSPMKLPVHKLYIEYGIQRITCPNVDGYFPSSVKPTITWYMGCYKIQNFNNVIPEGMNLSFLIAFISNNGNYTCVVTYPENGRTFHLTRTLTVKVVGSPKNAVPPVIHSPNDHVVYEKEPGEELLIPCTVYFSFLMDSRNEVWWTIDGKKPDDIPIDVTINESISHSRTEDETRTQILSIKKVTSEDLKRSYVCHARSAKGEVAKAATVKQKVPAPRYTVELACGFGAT
# assay-details: Octet BLI; mAb captured on anti-mouse IgG Fc sensor; cyIL1RAP-His analyte
metric: pKd
Numbers only, as −log10 of the molar value.

STLX2029 (antibody, V domains shown, Purified from hybridoma of immunized Alivamab mice; intact IgG; captured on anti-mouse IgG Fc sensors in Octet; kappa light chain; also called 74804_29D13A) VH: QVQLLQSGAEVKKPGSSVKVSCKASGGTFSIYAIDWVRQAPGQGLEWMGGIIPIFGTANSAQKFQGRVTITADKSTSTAYMELSSLRSEDTAVYYCARNGATSDAFDMWGQGTMVTVSS VL: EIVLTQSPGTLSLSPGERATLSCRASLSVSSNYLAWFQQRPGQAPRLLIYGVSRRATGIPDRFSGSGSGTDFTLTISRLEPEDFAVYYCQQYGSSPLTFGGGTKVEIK: 8.71
STLX2025 (antibody, V domains shown, Purified from hybridoma of immunized Alivamab mice; intact IgG; captured on anti-mouse IgG Fc sensors in Octet; kappa light chain; also called 74804_25H09A) VH: QVQLVQSGAEVKKPGSSVKVSCKASGDTFSNYAITWVRQAPGQGLEWIVGFSPIFGTANYAQKFQGRVTITADKSTSTAYMELSSLISEDTAVYYCAWGSGNFNWFDPWGQGTLVTVSS VL: AIRMTQSPSSFSASTGDRVTITCRASQGISSYLAWYQQKPGKAPKLLIYAASTLQSGVPSRFSGSGSGTDFTLTISSLQSEDFATYYCQQYYSYPLTFGGGTKVEIK: 8.68
STLX2018 (antibody, V domains shown, Purified from hybridoma of immunized Alivamab mice; intact IgG; captured on anti-mouse IgG Fc sensors in Octet; kappa light chain; also called 74804_18L05A) VH: QVQLVQSGAEVKKPGASVKVSCKTSGYTFTSCCMHWVRQAPGQGLEWMGIINPSVGSTSYAQKFQGIVTMTRDTSTSTVYMELSSLRSEDTAVYYCAVDSSGSRYYYGMDVWGQGTTVTVSS VL: EIVMTQSPATLSVSPGERATLSCRASQSVRSNLAWYQQRPGQAPRLLIYGTSTRATGIPARFSGSGSGTEFTLTISSLQSEDFAVYYCQQYNYWPYTFGQGTKLEIK: 8.36
STLX2005 (antibody, V domains shown, Purified from hybridoma of immunized Alivamab mice; intact IgG; captured on anti-mouse IgG Fc sensors in Octet; kappa light chain; also called 74804_05B24A) VH: EVQLVDSGGGLVKPGGSLRLSCAATGFTFSNVWMSWVRQGSGKGLEWVGRIKSKTDGGTIDYAAPVKGRFTISRDDPKNTLYLQMNSLKTEDTAVYYCTTGELLGFDYWGQGTLVTVSS VL: DIVMTQSPLSLPVTPGEPASISCRSGQSLLHNNGFNCLAWYLQKPGQSPQLLIYLGSNRASGVPDRFSGSGSGTDFTLKISRVEAEDVGVFYCMQTLQTPITFGQGTRLEIK: 8.68

Let us examine a further case.
Endpoint output: pKd of STLX2045 (antibody, V domains shown, Purified from hybridoma of immunized Alivamab mice; intact IgG; captured on anti-mouse IgG Fc sensors in Octet; kappa light chain; also called 74804_45C18A) VH: EVQLVESGGGLVKPGGSLRLACAATGFTFSNVWMSWVRQGSGKGLEWVGRIKSKADGGTIDYAAPVKGRFTISRDDSKNTLYLQMNSLKTEDTAMYYCTTGELLGFDYWGQGTLVTVSS VL: DIVMTQSPLSLPVTPGEPASISCRSGQSLLHSNGFNCLAWYLQKPGQSPQLLIYLGSNRASGVPDRFSGSGSGTDFTLKISRVEAEDVGVYYCMQTLQTPITFGQGTRLEIK . Value?
9.06

The reported numbers originate from patent US20240392013A1.
